Here, each record is paired with measured inhibition at 1 µM data.
Target: dopaminergic D3 receptor (Homo sapiens, UniProt P35462)
Sequence (P35462 whole entry): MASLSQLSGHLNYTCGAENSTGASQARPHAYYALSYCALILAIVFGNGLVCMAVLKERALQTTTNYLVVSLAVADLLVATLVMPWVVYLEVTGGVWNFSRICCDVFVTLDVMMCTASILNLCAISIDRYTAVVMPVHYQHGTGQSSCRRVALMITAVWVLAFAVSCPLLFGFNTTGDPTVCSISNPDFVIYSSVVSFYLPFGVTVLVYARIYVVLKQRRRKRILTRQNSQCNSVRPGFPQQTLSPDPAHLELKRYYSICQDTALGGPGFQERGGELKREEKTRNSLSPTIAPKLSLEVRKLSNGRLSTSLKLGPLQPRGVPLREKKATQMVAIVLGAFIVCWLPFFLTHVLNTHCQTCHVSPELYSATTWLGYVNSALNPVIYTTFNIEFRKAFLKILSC
Experiment: Binding assay D3 (h), [3H]methyl-spiperone, CHO cells
Design: expressed in transfected cells; host or cells: CHO cells
Conditions: read-out: D3 [%]
Write the figure, then the unit, nothing else.

Which value of inhibition at 1 µM has been reported for O=S(=O)(NCCCN1CCN(c2nsc3ccccc23)CC1)c1ccc(F)cc1 in the records?
100%

Okay, and O=S(=O)(NCCCN1CCC(c2noc3cc(F)ccc23)CC1)c1ccc2ccccc2c1 ?
97%

Okay, and Cc1cccc(S(=O)(=O)NCCCCN2CCN(c3cccc4c3OCCO4)CC2)c1 ?
87%

Okay, and O=S(=O)(NCCCN1CCC(c2noc3cc(F)ccc23)CC1)c1ccc(F)c(Cl)c1 ?
100%

Okay, and Cn1ccc2c(S(=O)(=O)NCCCCN3CCC(c4noc5cc(F)ccc45)CC3)cccc21 ?
97%

Okay, and O=C1COc2c(cccc2N2CCN(CCCCNS(=O)(=O)c3cccc(C(F)(F)F)c3)CC2)N1 ?
101%

Okay, and O=S(=O)(NCCCN1CCC(c2noc3cc(F)ccc23)CC1)c1cccc(Cl)c1 ?
97%

Okay, and O=S(=O)(NCCCCN1CCN(c2nsc3ccccc23)CC1)c1cccc(O)c1 ?
97%

---

Molecular target: dopaminergic D3 receptor (Homo sapiens, UniProt P35462)
Test: Cellular functional assay, dopaminergic D3 receptor (agonism/antagonism)
Format: cell-based
Details: CHO; read-out: D3-antag. [%]
metric.name: inhibition at 1 µM (%)
Field format: number, assumed %, no unit text.

substance.smiles | inhibition at 1 µM / %
O=S(=O)(NCCCCN1CCC(c2noc3cc(F)ccc23)CC1)c1ccc2cc(Cl)ccc2c1 | 87

Which value of inhibition at 1 µM has been reported for Cc1cccc(S(=O)(=O)NCCCN2CCN(c3nsc4ccccc34)CC2)c1 in the records?
66

Okay, and O=S(=O)(NCCCN1CCC(c2noc3cc(F)ccc23)CC1)c1ccc2cc(Cl)ccc2c1 ?
109

---

Target: dopaminergic D2 receptor (Homo sapiens, UniProt P14416)
Sequence (P14416 whole entry): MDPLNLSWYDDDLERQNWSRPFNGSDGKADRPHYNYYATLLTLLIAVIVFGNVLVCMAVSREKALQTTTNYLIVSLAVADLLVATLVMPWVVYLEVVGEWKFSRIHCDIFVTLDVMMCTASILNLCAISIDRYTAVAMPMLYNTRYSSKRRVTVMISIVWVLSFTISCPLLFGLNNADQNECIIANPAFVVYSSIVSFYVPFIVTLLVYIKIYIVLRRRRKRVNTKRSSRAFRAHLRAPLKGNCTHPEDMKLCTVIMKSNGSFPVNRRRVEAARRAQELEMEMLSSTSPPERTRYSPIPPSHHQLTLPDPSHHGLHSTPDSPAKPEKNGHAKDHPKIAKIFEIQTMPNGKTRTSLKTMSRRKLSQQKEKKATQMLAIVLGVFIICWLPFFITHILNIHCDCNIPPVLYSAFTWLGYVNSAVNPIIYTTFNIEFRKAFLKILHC
Assay: Cellular functional assay, dopaminergic D2 receptor (agonism/antagonism)
Format: cell-based
Conditions: HEK293; read-out: D2-antag. [%]
metric.name: inhibition at 1 µM

A selection of reference data follows.
compound | tested.system | assay.value
O=S(=O)(NCCCCN1CCN(c2cccc3[nH]ccc23)CC1)c1ccc2ccccc2c1 [Compound 26] | dopaminergic D2 receptor (Homo sapiens, UniProt P14416) | 99%
Cc1c(S(=O)(=O)NCCCN2CCC(c3noc4cc(F)ccc34)CC2)sc2ccc(F)cc12 [Compound 102] | dopaminergic D2 receptor (Homo sapiens, UniProt P14416) | 85%
O=S(=O)(NCCCCN1CCN(c2cccc3[nH]ccc23)CC1)c1cc2ccccc2s1 [Compound 33] | dopaminergic D2 receptor (Homo sapiens, UniProt P14416) | 98%
Cc1c(S(=O)(=O)NCCCCN2CCC(c3noc4cc(F)ccc34)CC2)sc2ccc(F)cc12 [Compound 101] | dopaminergic D2 receptor (Homo sapiens, UniProt P14416) | 85%
O=S(=O)(NCCCCN1CCN(c2nsc3ccccc23)CC1)c1cccc2ccccc12 [Compound 1] | dopaminergic D2 receptor (Homo sapiens, UniProt P14416) | 95%
O=S(=O)(NCCCCN1CCC(c2noc3cc(F)ccc23)CC1)c1csc2ccccc12 [Compound 313] | dopaminergic D2 receptor (Homo sapiens, UniProt P14416) | 85%

Which value of inhibition at 1 µM has been reported for O=S(=O)(NCCCCN1CCN(c2nsc3ccccc23)CC1)c1ccc2cc(Cl)ccc2c1 [Compound 61] in the records?
77%

---

Target: serotoninergic 5-HT2A receptor (Homo sapiens)
Sequence (P28223 whole entry): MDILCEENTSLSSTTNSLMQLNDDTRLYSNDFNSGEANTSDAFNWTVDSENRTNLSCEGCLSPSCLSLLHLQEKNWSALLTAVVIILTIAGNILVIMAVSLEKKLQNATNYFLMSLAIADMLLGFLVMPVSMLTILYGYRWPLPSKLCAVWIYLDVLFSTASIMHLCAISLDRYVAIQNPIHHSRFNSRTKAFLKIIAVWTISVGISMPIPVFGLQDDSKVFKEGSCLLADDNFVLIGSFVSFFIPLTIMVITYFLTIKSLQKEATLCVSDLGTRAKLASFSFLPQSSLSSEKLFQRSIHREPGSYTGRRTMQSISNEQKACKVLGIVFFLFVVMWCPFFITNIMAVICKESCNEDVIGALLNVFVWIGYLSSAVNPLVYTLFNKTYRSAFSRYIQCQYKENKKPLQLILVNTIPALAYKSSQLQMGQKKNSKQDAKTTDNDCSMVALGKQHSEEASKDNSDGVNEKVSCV
Assay: Cellular functional assay, serotoninergic 5-HT2A receptor (agonism/antagonism)
Assay type: cell-based
Details: read-out: 5-HT2A -antag [%]
Here, each record is paired with measured inhibition at 1 µM data.
Field format: number, assumed %, no unit text.

A selection of reference data follows.
molecule | metric.name | assay.value
O=S(=O)(NCCCN1CCC(c2noc3cc(F)ccc23)CC1)c1ccc(F)c(Cl)c1 [Compound 331] | inhibition at 1 µM | 98
Cc1cccc(S(=O)(=O)NCCCN2CCC(c3noc4cc(F)ccc34)CC2)c1 [Compound 22] | inhibition at 1 µM | 102
O=c1[nH]c2ccc(S(=O)(=O)NCCCN3CCN(c4nsc5ccccc45)CC3)cc2o1 [Compound 8] | inhibition at 1 µM | 99
O=S(=O)(NCCCCN1CCN(c2nsc3ccccc23)CC1)c1cccc2ccccc12 [Compound 1] | inhibition at 1 µM | 99
O=S(=O)(NCCCCN1CCN(c2cccc3[nH]ccc23)CC1)c1ccc2cc(Cl)ccc2c1 [Compound 358] | inhibition at 1 µM | 57
Cc1c(S(=O)(=O)NCCCCN2CCN(c3nsc4ccccc34)CC2)sc2ccc(F)cc12 [Compound 65] | inhibition at 1 µM | 98
O=S(=O)(NCCCCN1CCN(c2nsc3ccccc23)CC1)c1ccc2cc(Cl)ccc2c1 [Compound 61] | inhibition at 1 µM | 97

Which value of inhibition at 1 µM has been reported for O=S(=O)(NCCCCN1CCC(c2noc3cc(F)ccc23)CC1)c1cc2ccccc2s1 [Compound 312] in the records?
98

---

Target: serotoninergic 5-HT1A receptor (Homo sapiens)
Sequence (P08908 1-422): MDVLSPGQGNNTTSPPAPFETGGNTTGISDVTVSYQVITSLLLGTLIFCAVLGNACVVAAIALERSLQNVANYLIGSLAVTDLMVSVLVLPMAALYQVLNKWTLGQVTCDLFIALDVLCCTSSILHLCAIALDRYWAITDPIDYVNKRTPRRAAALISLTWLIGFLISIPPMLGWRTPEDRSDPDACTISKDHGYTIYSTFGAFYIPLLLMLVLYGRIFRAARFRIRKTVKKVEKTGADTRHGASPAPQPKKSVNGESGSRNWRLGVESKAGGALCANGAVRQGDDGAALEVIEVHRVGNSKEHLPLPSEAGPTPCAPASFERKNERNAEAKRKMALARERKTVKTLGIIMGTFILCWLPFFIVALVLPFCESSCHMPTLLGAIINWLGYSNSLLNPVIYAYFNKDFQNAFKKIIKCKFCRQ
Assay: Binding assay 5-HT1A (h), [3H]8-OH-DPAT, HEK-293 cells
Set-up: expressed in transfected cells; host or cells: HEK-293 cells
Settings: read-out: 5-HT1A
// label = y if inhibition at 1 µM is not less than 80%, otherwise n

substance.smiles | class
O=S(=O)(NCCCN1CC=C(c2c[nH]c3ccc(F)cc23)CC1)c1cccc(F)c1 | y
O=S(=O)(NCCCN1CCN(c2cccc3c2OCCO3)CC1)c1ccc2cc(Cl)ccc2c1 | y
O=S(=O)(NCCCN1CCC(c2noc3cc(F)ccc23)CC1)c1cc2ccccc2s1 | n
Cc1cccc(S(=O)(=O)NCCCCN2CCN(c3cccc4c3OCCO4)CC2)c1 | n
O=S(=O)(NCCCCN1CCN(c2nsc3ccccc23)CC1)c1csc2ccccc12 | y
O=S(=O)(NCCCCN1CCN(c2cccc3c2OCCO3)CC1)c1cccc(Br)c1 | y

Consider the record given below.
Could you verify whether the entry O=S(=O)(NCCCCN1CCN(c2noc3ccccc23)CC1)c1ccc(Cl)cc1 shows inhibition at 1 µM of no less than 80%?
n

---

Here, each record is paired with measured σ [%] data.
System: sigma σ receptor
Assay: Binding assay σ (non-selective), [3H]DTG, rat cerebral cortex
Conditions: percent inhibition of control specific binding; compounds tested at 1×10^−6 M
Field format: number, assumed %, no unit text.

A selection of reference data follows.
substance.smiles | measurement.units | σ [%]
O=S(=O)(NCCN1CC=C(c2c[nH]c3ccc(F)cc23)CC1)c1cccc(F)c1 | % | 80
O=c1[nH]c2cccc(N3CCN(CCCCNS(=O)(=O)c4ccc5ccccc5c4)CC3)c2[nH]1 | % | −14
Cc1[nH]c2ccc(Cl)cc2c1C1=CCN(CCCNS(=O)(=O)c2cccc(O)c2)CC1 | % | 67
O=S(=O)(NCCCN1CCN(c2nsc3ccccc23)CC1)c1cccc(Br)c1 | % | 64
O=S(=O)(NCCCN1CCN(c2nsc3ccccc23)CC1)c1ccc(F)c(Cl)c1 | % | 54

Which value of σ [%] has been reported for Cc1cccc(S(=O)(=O)NCCN2CCN(c3nsc4ccccc34)CC2)c1 in the records?
21

Okay, and Cc1c(S(=O)(=O)NCCCN2CCN(c3nsc4ccccc34)CC2)sc2ccc(F)cc12 ?
61

Okay, and Cc1cccc(S(=O)(=O)NCCCN2CCC(c3noc4cc(F)ccc34)CC2)c1 ?
92

---

Biological target: serotoninergic 5-HT6 receptor (Homo sapiens)
Sequence (P50406 whole entry): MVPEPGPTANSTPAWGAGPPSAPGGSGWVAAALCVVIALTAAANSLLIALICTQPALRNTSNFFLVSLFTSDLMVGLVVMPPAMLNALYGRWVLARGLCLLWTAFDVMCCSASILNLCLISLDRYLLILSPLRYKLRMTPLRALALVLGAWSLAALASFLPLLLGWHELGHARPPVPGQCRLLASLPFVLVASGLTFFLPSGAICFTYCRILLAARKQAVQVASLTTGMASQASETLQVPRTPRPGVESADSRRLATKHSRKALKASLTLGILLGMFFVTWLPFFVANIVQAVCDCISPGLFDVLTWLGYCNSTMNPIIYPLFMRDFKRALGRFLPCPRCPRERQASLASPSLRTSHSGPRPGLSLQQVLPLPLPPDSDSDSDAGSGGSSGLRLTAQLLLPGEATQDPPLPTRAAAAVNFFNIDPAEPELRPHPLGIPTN
Assay: Cellular functional assay, serotoninergic 5-HT6 receptor (agonism/antagonism)
Format: cell-based
Conditions: read-out: 5-HT6-antag. [%]
Procedure: The compounds were tested at the concentration of 1×10^−6M. In the Tables ag refers to agonism, and antag to antagonism).
Here, each record is paired with measured inhibition at 1 µM data.
Field format: number, assumed %, no unit text.

A selection of reference data follows.
substance.smiles | assay.value
O=S(=O)(NCCN1CCC(c2noc3cc(F)ccc23)CC1)c1cccc2ccccc12 | 1
O=c1[nH]c2ccc(S(=O)(=O)NCCCCN3CCN(c4nsc5ccccc45)CC3)cc2o1 | 37
Cc1cccc(S(=O)(=O)NCCCCN2CCC(c3noc4cc(F)ccc34)CC2)c1 | 23
O=S(=O)(NCCCCN1CCC(c2noc3cc(F)ccc23)CC1)c1cc2ccc(Cl)cc2s1 | 91

Which value of inhibition at 1 µM has been reported for O=S(=O)(NCCCCN1CCN(c2noc3ccccc23)CC1)c1cc2ccc(Cl)cc2s1 in the records?
74

Okay, and O=S(=O)(NCCN1CCN(c2nsc3ccccc23)CC1)c1ccc2ccccc2c1 ?
-16
